target: NMDAR2B expressing HEK cell membranes (Homo sapiens, UniProt Q05586+Q13224); construct: expressed in transfected cells; host or cells: HEK cells (membrane extract); experiment: NMDAR agonist assay, [3H]MK-801 binding, NMDAR2B; format: biochemical; details: 50 μM glutamate; [3H]MK-801 binding; read-out: NMDAR2B log EC50 (converted)
Sequence (Q13224 27-1484, other chains not shown): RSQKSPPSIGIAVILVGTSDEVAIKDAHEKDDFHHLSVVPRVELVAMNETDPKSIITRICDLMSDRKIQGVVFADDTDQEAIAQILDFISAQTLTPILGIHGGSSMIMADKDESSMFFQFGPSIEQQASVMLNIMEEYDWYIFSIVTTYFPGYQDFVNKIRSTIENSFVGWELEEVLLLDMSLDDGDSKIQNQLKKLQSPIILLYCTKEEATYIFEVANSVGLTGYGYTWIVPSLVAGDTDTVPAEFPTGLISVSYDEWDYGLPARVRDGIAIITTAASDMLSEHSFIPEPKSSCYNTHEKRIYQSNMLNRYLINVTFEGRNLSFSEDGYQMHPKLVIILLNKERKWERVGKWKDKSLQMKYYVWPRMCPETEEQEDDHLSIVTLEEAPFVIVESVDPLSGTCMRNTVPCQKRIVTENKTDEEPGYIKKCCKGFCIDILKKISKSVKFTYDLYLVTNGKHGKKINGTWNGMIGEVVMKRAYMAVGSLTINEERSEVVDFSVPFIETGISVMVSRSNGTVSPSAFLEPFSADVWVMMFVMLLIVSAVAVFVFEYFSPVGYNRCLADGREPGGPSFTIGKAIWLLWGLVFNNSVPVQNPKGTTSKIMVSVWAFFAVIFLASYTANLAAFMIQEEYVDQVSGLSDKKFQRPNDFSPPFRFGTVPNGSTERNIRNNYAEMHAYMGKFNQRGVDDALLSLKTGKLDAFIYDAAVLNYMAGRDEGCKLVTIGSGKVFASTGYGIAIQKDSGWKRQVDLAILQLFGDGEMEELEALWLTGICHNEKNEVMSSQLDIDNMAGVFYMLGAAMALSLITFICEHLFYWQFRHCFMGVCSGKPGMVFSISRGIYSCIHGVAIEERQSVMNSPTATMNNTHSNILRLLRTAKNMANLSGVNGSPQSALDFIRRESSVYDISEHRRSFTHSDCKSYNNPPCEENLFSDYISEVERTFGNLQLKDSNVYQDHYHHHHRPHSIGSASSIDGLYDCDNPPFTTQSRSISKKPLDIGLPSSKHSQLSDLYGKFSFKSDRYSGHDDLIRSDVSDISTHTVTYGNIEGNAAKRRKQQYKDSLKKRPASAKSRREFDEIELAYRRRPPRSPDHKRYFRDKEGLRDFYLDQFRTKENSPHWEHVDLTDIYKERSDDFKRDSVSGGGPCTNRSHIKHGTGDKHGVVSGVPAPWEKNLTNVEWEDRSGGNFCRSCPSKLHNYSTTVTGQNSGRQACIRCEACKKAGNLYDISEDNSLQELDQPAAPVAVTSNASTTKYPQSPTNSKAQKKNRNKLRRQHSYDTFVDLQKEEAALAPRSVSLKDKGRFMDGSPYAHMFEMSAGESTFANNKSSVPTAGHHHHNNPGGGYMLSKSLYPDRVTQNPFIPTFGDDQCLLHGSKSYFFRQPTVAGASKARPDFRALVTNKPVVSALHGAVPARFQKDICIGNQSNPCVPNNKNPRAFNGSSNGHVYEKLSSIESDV
Catalogue of EC50 readings, one per entry.

Check out these entries, answers already filled in.
compound	EC50
COc1ccc(CN2CC3(CC(N[C@H](C(=O)O)[C@@H](C)O)CN3C(=O)OC(C)(C)C)C2=O)cc1 (stereo partly drawn) [CF]	< 1 nM
CC(O)C(C(N)=O)N(C)CC1CCC2(CN(OCc3ccccc3)C2=O)N1 (single isomer, unassigned)	< 1 nM
O=C1NCC12CCC1(CNC1=O)N2Cc1ccc(F)cc1 (single isomer, unassigned)	< 1 nM

Just so you know, measured EC50 for CC(C)(C)OC(=O)N1C2(CCC13CNC3=O)CNC2=O (stereo not drawn) came out at > 100 nM

Quick note, EC50 for CC(O)C(NCC1CCC2(CNC2=O)N1)C(N)=O (single isomer, unassigned) landed at < 1 nM

Noted for C[C@@H](O)[C@H](NCC1CCC2(CN(OCc3ccccc3)C2=O)N1C(=O)OC(C)(C)C)C(N)=O (stereo partly drawn) : its EC50 reads > 100 nM

* * *

experiment: IV pharmacokinetics; type: in vivo; settings: Sprague Dawley, rat, in vivo, iv, 2 mg/kg, Sprague Dawley rats, normal saline, read-out: C0
Please use YES whenever C0 is not below 4000 ng/mL, and NO whenever it is.

molecule	classification
CC(C)C(=O)N1C(C(=O)N[C@H](C(N)=O)[C@@H](C)O)CCC12CNC2=O (single isomer, unassigned)	NO
C[C@@H](O)[C@@H](C(N)=O)N1CC2(CCC3(CN([C@H](C(N)=O)[C@@H](C)O)C3=O)N2C(=O)OC(C)(C)C)C1=O (stereo partly shown)	YES
CC(=O)N1C(C(=O)N[C@H](C(N)=O)[C@@H](C)O)CCC12CNC2=O (stereo partly shown)	YES
CC(C)C(=O)N1C2(CCC13CNC3=O)CNC2=O (single isomer, unassigned)	NO
C[C@@H](O)[C@H](NC(=O)C1CCC2(CNC2=O)N1)C(N)=O (single isomer, unassigned)	YES

Assess whether reported C0 for C[C@@H](O)[C@H](NC(=O)C1CCC2(CNC2=O)N1Cc1ccccc1)C(N)=O (single isomer, unassigned) sits at 4000 ng/mL or higher.
NO

C0 >= 4000 ng/mL for CC(C)(C)OC(=O)N1C(C(N)=O)CCC12CN(OCc1ccccc1)C2=O (single isomer, unassigned) ?
NO

* * *

// values below are reported Emax
target: NMDAR2B expressing HEK cell membranes (Homo sapiens, UniProt Q05586+Q13224); construct: expressed in transfected cells; host or cells: HEK cells (membrane extract); assay: NMDAR agonist assay, [3H]MK-801 binding, NMDAR2B; format: biochemical; settings: 50 μM glutamate; relative to 1 mM glycine; read-out: NMDAR2B: % maximal [3H]MK-801 binding relative to 1 mM glycine

// known answers, use as guide
compound	measurementLabel	measurement
CNC(=O)C(NCC1CCC2(CN(OCc3ccccc3)C2=O)N1)C(C)O (single isomer, unassigned)	Emax	< 100%
CC(O)C(C(N)=O)N(C)CC1CCC2(CN(OCc3ccccc3)C2=O)N1 (single isomer, unassigned)	Emax	< 100%
C[C@@H](O)[C@H](NC(=O)C1CCC2(CNC2=O)N1)C(N)=O (single isomer, unassigned)	Emax	< 100%
CC(O)C(C(N)=O)N(C)CC1CCC2(CNC2=O)N1 (single isomer, unassigned)	Emax	> 100%
NC(=O)C1CCC2(CN(OCc3ccccc3)C2=O)N1 (single isomer, unassigned)	Emax	< 100%

Lab note: C[C@@H](O)[C@H](NCC1CCC2(CNC2=O)N1C(=O)OC(C)(C)C)C(N)=O (some centres unmarked) gave Emax of < 100%

Please fill in: Emax reported for CC(C)C(=O)N1C[C@@H](C(N)=O)C[C@]12CNC2=O = 0%

According to the records, this compound C[C@@H](O)[C@H](NC(=O)C1CCC2(CNC2=O)N1C)C(N)=O (single isomer, unassigned) displays Emax of > 100%

* * *

Assay: Microsomal stability (Human)
Format: in vitro ADME
Details: human microsomes
Description: Microsomal stability of disclosed compounds was investigated. The following table indicates the percent of compound remaining after 60 minutes.
measurementLabel: Microsomal (Human): percent of compound remaining after 60 minutes (%)
# number only, unit % dropped from output

The examples below pair each entry with its known result.
compound	measurement
O=C1NCC12CCC1(CNC1=O)N2 (single isomer, unassigned)	100
O=C1NCC12CCC1(CNC1=O)N2Cc1ccccc1 (single isomer, unassigned) [AC-3]	77
C[C@@H](O)[C@H](NC(=O)C1CCC2(CNC2=O)N1Cc1ccccc1)C(N)=O (single isomer, unassigned) [AN]	88
CC(C)C(=O)N1C2(CCC13CNC3=O)CNC2=O (single isomer, unassigned)	100
CC(C)CN1[C@]2(CC[C@]13CNC3=O)CNC2=O	92
CC(C)(C)OC(=O)N1CC2(CN(OCc3ccccc3)C2=O)CC12CN(OCc1ccccc1)C2=O (single isomer, unassigned)	2
C[C@@H](O)[C@H](NC(=O)C1CCC2(CNC2=O)N1Cc1ccccc1)C(N)=O (single isomer, unassigned) [AM]	95
O=C1NCC12CCC1(CNC1=O)N2Cc1ccccc1 (single isomer, unassigned) [AC-2]	98

Notebook: O=C1NCC12CCC1(CNC1=O)N2Cc1ccccc1 (single isomer, unassigned) [AC-1] , Microsomal (Human): percent of compound remaining after 60 minutes read as 95

GET /value?item= CC(C)CN1[C@@]2(CC[C@@]13CNC3=O)CNC2=O &field=Microsomal (Human): percent of compound remaining after 60 minutes returns 100

Just so you know, measured Microsomal (Human): percent of compound remaining after 60 minutes for C[C@@H](O)[C@H](NC(=O)C1CCC2(CNC2=O)N1)C(N)=O (single isomer, unassigned) [AQ-1] came out at 100

compound C[C@@H](O)[C@@H](C(N)=O)N1CC2(CCC3(CN([C@H](C(N)=O)[C@@H](C)O)C3=O)N2C(=O)OC(C)(C)C)C1=O (some centres unmarked) , Microsomal (Human): percent of compound remaining after 60 minutes observed: 100

Microsomal (Human): percent of compound remaining after 60 minutes for CC(=O)N1C(C(=O)N[C@H](C(N)=O)[C@@H](C)O)CCC12CNC2=O (some centres unmarked) is 100

The measured Microsomal (Human): percent of compound remaining after 60 minutes associated with CC(C)(C)OC(=O)N1C(C(N)=O)CCC12CN(OCc1ccccc1)C2=O (single isomer, unassigned) reads 100

So, CC(C)C(=O)N1C(C(=O)N[C@H](C(N)=O)[C@@H](C)O)CCC12CNC2=O (single isomer, unassigned) ? Its Microsomal (Human): percent of compound remaining after 60 minutes was 84

Lab note: measured Microsomal (Human): percent of compound remaining after 60 minutes of CN1C2(CCC13CNC3=O)CNC2=O (single isomer, unassigned) was 72

Form: compound = C[C@@H](O)[C@H](NC(=O)C1CCC2(CNC2=O)N1)C(N)=O (single isomer, unassigned) [AQ-2] ; Microsomal (Human): percent of compound remaining after 60 minutes = 100

* * *

target: NMDAR2C expressing HEK cell membranes (Homo sapiens, UniProt Q05586+Q14957); construct: expressed in transfected cells; host or cells: HEK cells (membrane extract); experiment: NMDAR agonist assay, [3H]MK-801 binding, NMDAR2C; format: biochemical; settings: 50 μM glutamate; relative to 1 mM glycine; read-out: NMDAR2C A: % maximal [3H]MK-801 binding relative to 1 mM glycine
Sequence (Q14957 20-1233, other chains not shown): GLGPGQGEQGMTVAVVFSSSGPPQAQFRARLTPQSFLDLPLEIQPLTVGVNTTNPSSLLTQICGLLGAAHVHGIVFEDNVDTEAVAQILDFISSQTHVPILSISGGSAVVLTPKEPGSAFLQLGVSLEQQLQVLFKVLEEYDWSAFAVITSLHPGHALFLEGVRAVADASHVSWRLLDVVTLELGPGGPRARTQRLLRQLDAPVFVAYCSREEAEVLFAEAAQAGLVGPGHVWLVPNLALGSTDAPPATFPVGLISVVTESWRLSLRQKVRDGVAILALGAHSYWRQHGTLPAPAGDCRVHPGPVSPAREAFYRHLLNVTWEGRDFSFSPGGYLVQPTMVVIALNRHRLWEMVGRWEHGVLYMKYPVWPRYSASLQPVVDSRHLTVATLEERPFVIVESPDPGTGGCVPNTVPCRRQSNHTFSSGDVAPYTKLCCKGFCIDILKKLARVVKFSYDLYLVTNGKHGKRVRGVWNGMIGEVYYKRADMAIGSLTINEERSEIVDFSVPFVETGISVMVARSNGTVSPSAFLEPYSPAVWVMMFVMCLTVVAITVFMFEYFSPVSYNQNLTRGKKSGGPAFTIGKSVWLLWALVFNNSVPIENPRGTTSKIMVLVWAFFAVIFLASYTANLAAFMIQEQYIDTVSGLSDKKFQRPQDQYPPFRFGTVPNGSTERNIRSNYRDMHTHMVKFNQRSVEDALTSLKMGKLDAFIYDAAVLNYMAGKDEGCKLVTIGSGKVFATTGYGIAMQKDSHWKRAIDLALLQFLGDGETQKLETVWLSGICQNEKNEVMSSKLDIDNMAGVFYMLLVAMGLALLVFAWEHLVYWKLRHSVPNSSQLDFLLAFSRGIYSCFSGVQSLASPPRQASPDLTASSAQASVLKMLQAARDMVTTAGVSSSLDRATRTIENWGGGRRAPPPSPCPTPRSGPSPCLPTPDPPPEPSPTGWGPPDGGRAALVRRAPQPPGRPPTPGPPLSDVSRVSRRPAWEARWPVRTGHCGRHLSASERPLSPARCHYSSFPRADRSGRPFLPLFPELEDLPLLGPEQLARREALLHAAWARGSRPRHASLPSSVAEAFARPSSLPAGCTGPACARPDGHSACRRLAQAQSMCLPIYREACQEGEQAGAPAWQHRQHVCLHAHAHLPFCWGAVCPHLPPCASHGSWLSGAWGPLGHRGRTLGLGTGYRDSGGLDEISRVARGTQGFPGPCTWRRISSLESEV
Measured Emax by item

Sample records with Emax:
compound	Emax
O=C1NCC12CCC1(CNC1=O)N2Cc1ccccc1 (single isomer, unassigned)	< 100%
CC(C)(C)OC(=O)N1C(C(N)=O)CCC12CN(OCc1ccccc1)C2=O (single isomer, unassigned)	> 100%
C[C@@H](O)[C@H](NC(=O)C1CCC2(CNC2=O)N1)C(N)=O (single isomer, unassigned)	< 100%
C[C@@H](O)[C@@H](C(N)=O)N1CC2(CCC3(CN([C@H](C(N)=O)[C@@H](C)O)C3=O)N2C(=O)OC(C)(C)C)C1=O (stereo partly drawn)	< 100%

Reported Emax of CC(C)(C)OC(=O)N1CC2(CN(OCc3ccccc3)C2=O)CC12CN(OCc1ccccc1)C2=O (single isomer, unassigned) : < 100%

In plain terms, CC(C)C(=O)N1C2(CCC13CNC3=O)CNC2=O (single isomer, unassigned) has a documented Emax of < 100%

* * *

molecular target: NMDAR2B expressing HEK cell membranes (Homo sapiens); construct: expressed in transfected cells; host or cells: HEK cells (membrane extract); experiment: NMDAR agonist assay, [3H]MK-801 binding, NMDAR2B; type: biochemical; settings: 50 μM glutamate; relative to 1 mM glycine
measurementLabel: NMDAR2B: % maximal [3H]MK-801 binding relative to 1 mM glycine

compound	measurement
C[C@@H](O)[C@H](NC(=O)C1CCC2(CNC2=O)N1C)C(N)=O (single isomer, unassigned)	+ (<100%=+)
CC(C)(C)OC(=O)N1C(C(N)=O)CCC12CN(OCc1ccccc1)C2=O (single isomer, unassigned)	+ (<100%=+)
O=C1NCC12CN(Cc1ccccc1)C1(CNC1=O)C2 (single isomer, unassigned) [DR]	+ (<100%=+)
